# MEASURED_ON: D(3) dopamine receptor (Rattus norvegicus, UniProt P19020)
# Sequence (P19020 whole entry): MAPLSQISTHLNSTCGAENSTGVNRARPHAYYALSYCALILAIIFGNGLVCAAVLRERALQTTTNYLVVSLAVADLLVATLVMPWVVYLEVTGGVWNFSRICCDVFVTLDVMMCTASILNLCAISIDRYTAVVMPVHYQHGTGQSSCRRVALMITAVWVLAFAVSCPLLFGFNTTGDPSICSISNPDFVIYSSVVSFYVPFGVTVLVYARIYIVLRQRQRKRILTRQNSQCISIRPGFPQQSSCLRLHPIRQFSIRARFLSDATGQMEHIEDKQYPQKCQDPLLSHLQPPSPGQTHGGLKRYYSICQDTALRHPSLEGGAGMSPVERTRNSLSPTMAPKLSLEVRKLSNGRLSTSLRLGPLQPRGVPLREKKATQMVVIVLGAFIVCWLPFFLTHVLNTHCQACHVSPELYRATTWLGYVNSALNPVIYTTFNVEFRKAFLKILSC
pKi: −log10 of the molar value.
Each record here notes measured pKi.
METRIC: pKi

• CCCN[C@@H]1CCc2c(OC)cccc2[C@@H]1C = 6.36
• OCCN1CCN(CCCN2c3ccccc3Sc3ccc(C(F)(F)F)cc32)CC1 = 9.15
• CCCN(CCC)C1C=Cc2c(OC)cccc2C1C (stereo unspecified) [CAS_5311190] = 7.44
• CCc1cc(Cl)c(OC)c(C(=O)NC[C@@H]2CCCN2CC)c1O = 9.64
• O=C(O)c1ccccc1C(=O)Nc1cccc2ccccc12 [NPA,(+)] = 9.09
• COc1cc(N)c(Cl)cc1C(=O)N[C@@H]1C[C@H]2CCC[C@@H](C1)N2Cc1ccc(F)cc1 [BRL-34778] = 9.55

This collection of values is drawn from BindingDB's records for PubMed 8437101.
